Here is a set of molecules with reported pKi for UniProt P00749, compiled from the literature.
pKi is a log-scale quantity: -log10 of the concentration expressed in molar.

Example cases with answers are listed next.
{"Molecule": "CN(C)Cc1ccccc1NC(=O)OCC(Oc1cccc2sc(C(=N)N)cc12)c1ccccc1 (stereo unspecified)", "Recorded Value": 6.22}
{"Molecule": "N=C(N)c1ccc2cc(CCc3ccc(CN4CCCC4)cc3)cc(Nc3ncccn3)c2c1", "Recorded Value": 7.50}
{"Molecule": "Cc1cccnc1N=C(N)N", "Recorded Value": 4.42}
{"Molecule": "N=C(N)NCCC1CCN(C(=O)[C@H](Cc2cccc(C(=N)N)c2)NS(=O)(=O)c2ccc(C3CCCCC3)cc2)CC1", "Recorded Value": 5.72}
{"Molecule": "N=C(N)Nc1ncc(Cl)cc1/C=C/c1ccccn1", "Recorded Value": 5.80}

// moving on: another record for pKi
Exam item: So what's the measured pKi for this one? N=C(N)c1cccc(CC(NS(=O)(=O)c2ccc3ccccc3c2)C(=O)N2CCNCC2)c1 (stereo unspecified)
Marked response: 4.32

----------
Here is a set of compounds with reported Ki for UniProt P00749, compiled from the literature.

Example cases with answers are listed next.
{"Smiles Repr": "COC(=O)Nc1ccc2c(c1)NC(=O)CC/C=C/C[C@H](N1CC[C@H](c3cccc(Cl)c3)CC1=O)c1nc-2c[nH]1", "Ki": "> 15.1 µM"}
{"Smiles Repr": "CSc1sc(C(=N)N)cc1S(=O)(=O)c1cc(Br)c2c(c1)ncn2Cc1cc(F)ccc1F", "Ki": "> 10 µM"}

// moving on: another record for Ki
Exam item: # returns recorded Ki (system: UniProt P00749) for `COc1ccc(-n2nc(C(N)=O)c3c2C(=O)N(c2ccc(C(C)(C)CO)cc2)CC3)cc1`
Marked response: > 13 µM

----------
pKi: −log10 of the molar value.
Here is a set of molecules with reported pKi for UniProt P00749, compiled from the literature.

{"Smiles Repr": "N=C(N)c1ccc(Oc2ccc(NS(=O)(=O)c3cccc4cccnc34)c(Oc3ccc(C(=N)N)cc3)n2)cc1", "pKi": "< 5.00"}

Exam item: # returns recorded pKi (system: UniProt P00749) for `Cc1cc(OCCCN=C(N)N)cc(OS(=O)(=O)c2ccccc2Cl)c1`
Marked response: < 3.70

Exam item: # returns recorded pKi (system: UniProt P00749) for `Cc1cc(OCCN(C)c2ccncc2)cc(OS(=O)(=O)c2ccccc2Cl)c1`
Marked response: < 3.70

Exam item: # returns recorded pKi (system: UniProt P00749) for `Cc1cc2cc(N=C(NC(=O)c3ccc(C(=O)N(C)C)nc3)N[C@H]3CCCCN(CC(=O)N4CCCC4)C3=O)ccc2o1`
Marked response: < 5.11

Exam item: # returns recorded pKi (system: UniProt P00749) for `N=C(N)c1ccc(Oc2ccc(NS(=O)(=O)c3cc(F)cc(F)c3)c(Oc3ccc(C(=N)N)cc3)n2)cc1`
Marked response: < 5.00

----------
pKi: −log10 of the molar value.
Here is a set of compounds with reported pKi for UniProt:P00749, compiled from the literature.

Example cases with answers are listed next.
{"Compound": "NCc1ccc(Cl)cc1CNC(=O)CNC(=O)C(CCc1cccc[n+]1[O-])NS(=O)(=O)Cc1ccc(CC(=O)O)cc1 (configuration not stated)", "pKi": "< 5.30"}
{"Compound": "COC(=O)C(=O)NC(CCc1cccc[n+]1[O-])C(=O)NCC(=O)NCc1cc(Cl)ccc1CN (configuration not stated)", "pKi": "< 5.30"}
{"Compound": "NCCC(=O)Nc1cccc(S(=O)(=O)N[C@@H](Cc2cccc(CN)c2)C(=O)N2CCC(CCN)CC2)c1", "pKi": "< 3.00"}

// moving on: another record for pKi
Exam item: So what's the measured pKi for this one? `N=C(N)c1ccc(Oc2ccc(C(=O)N[C@H]3CC[C@H](N)CC3)c(Oc3ccc(C(=N)N)cc3)n2)cc1`
Marked response: < 5.00
